TARGET_UNDER_TEST: S-BG (Novozymes SP188 from Sigma), commercial beta-glucosidase
PROCEDURE_TEXT: BG kinetics, cellobiose hydrolysis assay (HPLC) with glucose as competitive inhibitor, S-BG
Format: biochemical
EXPERIMENTAL_SETUP: cellobiose substrate, competitive inhibition, pH 4.8, 50° C.
pKi: −log10 of the molar value.

MOLECULE: OC[C@H]1OC(O)[C@H](O)[C@@H](O)[C@@H]1O (stereo partly shown) [glucose]
pKi: 2.50

###

TARGET_UNDER_TEST: A-BG (Accellerase® BG from DuPont), commercial beta-glucosidase
PROCEDURE_TEXT: BG kinetics, cellobiose hydrolysis assay (HPLC) with glucose as competitive inhibitor, A-BG
Assay type: biochemical
EXPERIMENTAL_SETUP: cellobiose substrate, competitive inhibition, pH 4.8, 50° C.
Method: The kinetic properties of beta glucosidase are important for cellulosic hydrolysis, since in commercial situations a wide range of substrate concentrations and different product inhibition conditions will be encountered. […] The specific activity used here was determined by the initial velocity approach that is required by implementing Michaelis-Menten model (Copeland, 2000). […] The relative activity was determined based on the maximum activity obtained in the absence of initial glucose inhibition. […]
pKi: −log10 of the molar value.
VALUE_KIND: pKi

COMPOUND: OC[C@H]1OC(O)[C@H](O)[C@@H](O)[C@@H]1O (stereo partly shown) [glucose]
OBSERVED: 2.28
